// provenance: ChEMBL document CHEMBL3352206

Assay: Cytotoxicity against mouse BMDC at 10 uM after 18 hrs incubation by MTT assay
property label: Activity
Answer by giving the amount and then stating its unit.

Enquiry: Fill in: Activity of CCOC(=O)c1nc(Nc2cc(Oc3ccccc3)cc([N+](=O)[O-])c2)c2ccccc2n1 is ___
Return: 117%

* * *

System: PBMC
Experiment: Cytotoxicity against human PBMC at 10 uM after 18 hrs incubation by MTT assay
Format: cell-based
property label: Activity

Enquiry: Fill in: Activity of CCOC(=O)c1nc(Nc2cc(Oc3ccccc3)cc([N+](=O)[O-])c2)c2ccccc2n1 is ___
Return: 112%
